method-notes: Hematology assays in cynomolgus monkeys (Example 45)
Type: in vivo
run-parameters: day 71; escalating dose regimen
Description: Groups, each consisting of two male and three female monkeys, were injected subcutaneously with ISIS 416838, ISIS 416850, ISIS 416858, ISIS 416864, or ISIS 417002 in escalating doses. […] Body weights were measured weekly. […]
measurement-label: RBC count
Entry format: amount then unit.

Worked cases, answers included:
substance: ISIS 416850: MOE gapmer, nucleobases 1275 to 1318 of SEQ ID NO: 1 (Table 8) (antisense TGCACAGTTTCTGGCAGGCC; MOE gapmer, wing and gap sizes not given here)
RBC count: 5.4e+06 µL⁻¹
//
substance: ISIS 416864: MOE gapmer, nucleobases 1275 to 1318 of SEQ ID NO: 1 (Table 8) (antisense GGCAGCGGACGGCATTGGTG; MOE gapmer, wing and gap sizes not given here)
RBC count: 5.6e+06 µL⁻¹
//
substance: ISIS 416858: MOE gapmer, nucleobases 1275 to 1318 of SEQ ID NO: 1 (Table 8) (antisense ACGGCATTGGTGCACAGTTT; MOE gapmer, wing and gap sizes not given here)
RBC count: 5.6e+06 µL⁻¹
//
substance: ISIS 417002: MOE gapmer, nucleobases 1275 to 1318 of SEQ ID NO: 1 (Table 8) (antisense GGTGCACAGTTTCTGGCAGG; MOE gapmer, wing and gap sizes not given here)
RBC count: 5.5e+06 µL⁻¹

Endpoint output: RBC count of ISIS 416838: MOE gapmer, nucleobases 1018 to 1042 of SEQ ID NO: 1 (Table 6) (antisense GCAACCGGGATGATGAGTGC; MOE gapmer, wing and gap sizes not given here) . Value?
5.5e+06 µL⁻¹
